target: HIF1A; assay: HeLa, 100 nM transfected, 24 h, mean of 3; conditions: ASO
Bases are written 5' to 3'; sugars and linkages follow in the same order, as letters with counts (s phosphorothioate, o phosphodiester; PS: all linkages phosphorothioate). C may stand for cytosine or 5-methylcytosine; the collection does not tell. l = locked nucleic acid (LNA); d = 2'-deoxy (DNA)
Response key: class 1 means caspase activation (% of PBS control) >= 300; class 0 means caspase activation (% of PBS control) < 300.

INPUT: Check if caspase activation (% of PBS control) >= 300 (inclusive). Item: GTTACTGCCTTCTTAC (sugars l1 d1 l3 d6 l5, PS)
OUTPUT: class 1

INPUT: Check if caspase activation (% of PBS control) >= 300 (inclusive). Item: GTTACTGCCTTCTTAC (sugars ldddlddddddllddl, PS)
OUTPUT: class 0

INPUT: Check if caspase activation (% of PBS control) >= 300 (inclusive). Item: TGGCAAGCATCCTGTA (sugars lldlldddddddldll, PS)
OUTPUT: class 1

INPUT: Check if caspase activation (% of PBS control) >= 300 (inclusive). Item: TACTGCCTTCTTA (sugars l2 d8 l1 d1 l1, PS)
OUTPUT: class 0

INPUT: Check if caspase activation (% of PBS control) >= 300 (inclusive). Item: GTTACTGCCTTCTTAC (sugars ldlddddddddllldl, PS)
OUTPUT: class 0

INPUT: Check if caspase activation (% of PBS control) >= 300 (inclusive). Item: TGGCAAGCATCCTGTA (sugars l1 d11 l2 d1 l1, PS)
OUTPUT: class 0

INPUT: Check if caspase activation (% of PBS control) >= 300 (inclusive). Item: TGGCAAGCATCCTGTA (sugars ldlllddddddldlll, PS)
OUTPUT: class 1

INPUT: Check if caspase activation (% of PBS control) >= 300 (inclusive). Item: TGGCAAGCATCCTGTA (sugars ldlldddddddlldll, PS)
OUTPUT: class 1

INPUT: Check if caspase activation (% of PBS control) >= 300 (inclusive). Item: GTTACTGCCTTCTTAC (sugars l4 d7 l2 d2 l1, PS)
OUTPUT: class 0

INPUT: Check if caspase activation (% of PBS control) >= 300 (inclusive). Item: GTTACTGCCTTCTTAC (sugars llldlddddddddldl, PS)
OUTPUT: class 0
